Sourced from patent US11384055B2

Molecular target: Human GO (Homo sapiens, UniProt Q9UJM8)
Construct: purchased Novus Biologicals NBP1-72412
Test: GO enzymatic assay (coupled fluorescence/HRP assay, glycolate substrate)
Format: biochemical
Settings: Table 1; read-out: Range (range of IC50 values calculated from the enzymatic assays)
Measured IC50 accompanies every entry in the list below.

Example results:
INSERT INTO results (compound, endpoint_result) VALUES
  ('O=C(O)c1[nH]nnc1Sc1ccc(-c2ccc(Cl)cc2Cl)cc1', '< 100 nM'),
  ('O=C(OC1COC1)c1[nH]nnc1Sc1ccc(-c2ccc(OC(F)(F)F)cc2)cc1', '1000 to 10000 nM'),
  ('O=C(O)c1[nH]nnc1Oc1ccc(-c2cccc(OC3CCCC3)c2)cc1', '< 100 nM');

Per the records, this compound ( "O=C(O)c1[nH]nnc1Oc1cc(Cl)cc(Cl)c1" ) has IC50 equal to < 100 nM

Per the records, this compound ( "O=C(OC1CCC1)c1[nH]nnc1Sc1nc(-c2ccc(Cl)c(Cl)c2)cs1" ) has IC50 equal to > 10000 nM

Per the records, this compound ( "CC(C)Oc1ccc(-c2nc(Sc3nn[nH]c3C(=O)O)cs2)cc1Cl" ) has IC50 equal to < 100 nM

---

Molecular target: Human GO (Homo sapiens, UniProt Q9UJM8)
Construct: purchased Novus Biologicals NBP1-72412
Sequence (Q9UJM8 1-370): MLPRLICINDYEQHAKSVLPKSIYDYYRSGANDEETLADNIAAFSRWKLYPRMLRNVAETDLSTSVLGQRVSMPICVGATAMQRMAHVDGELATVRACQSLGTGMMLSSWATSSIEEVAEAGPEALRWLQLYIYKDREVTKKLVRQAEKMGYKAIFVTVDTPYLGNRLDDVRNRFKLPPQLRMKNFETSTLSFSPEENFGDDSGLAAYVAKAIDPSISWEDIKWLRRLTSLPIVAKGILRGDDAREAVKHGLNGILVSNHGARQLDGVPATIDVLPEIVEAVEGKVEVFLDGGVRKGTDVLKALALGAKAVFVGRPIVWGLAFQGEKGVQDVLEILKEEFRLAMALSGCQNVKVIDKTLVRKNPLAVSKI
Experiment: GO enzymatic assay (coupled fluorescence/HRP assay, glycolate substrate)
Assay type: biochemical
Conditions: Table 1; read-out: Range (range of IC50 values calculated from the enzymatic assays)
Measured IC50 accompanies every entry in the list below.

Example results:
INSERT INTO results (compound, measured_target, endpoint_result) VALUES
  ('COc1ccc(-c2nc(Sc3nn[nH]c3C(=O)O)cs2)cc1Cl', 'Human GO (Homo sapiens, UniProt Q9UJM8)', '< 100 nM'),
  ('O=C(O)c1[nH]nnc1C(=O)N1CCC(c2ccc(Cl)c(Cl)c2)C1 (stereo not drawn)', 'Human GO (Homo sapiens, UniProt Q9UJM8)', '1000 to 10000 nM');

Per the records, this compound ( O=C(O)c1[nH]nnc1Oc1ccc2ncccc2c1 [Compound 120, 2,2,2-trifluoroacetate] ) has IC50 equal to 100 to 1000 nM

Per the records, this compound ( O=C(O)c1[nH]nnc1C1=Cc2ccccc2CC1 [Compound 140, 2,2,2-trifluoroacetate] ) has IC50 equal to < 100 nM

Per the records, this compound ( CC(C)N1CCc2ccc(-c3nn[nH]c3C(=O)O)cc2C1 [Compound 144, 2,2,2-trifluoroacetate] ) has IC50 equal to > 10000 nM

Per the records, this compound ( O=C(O)c1[nH]nnc1OC1CCC(F)(F)CC1 [Compound 167, 2,2,2-trifluoroacetate] ) has IC50 equal to < 100 nM

Per the records, this compound ( "O=C(O)c1[nH]nnc1Sc1nnc(-c2ccc(Cl)c(Cl)c2)[nH]1" ) has IC50 equal to 100 to 1000 nM

Per the records, this compound ( "O=C(O)c1[nH]nnc1Oc1ccc(-c2ccc(C(F)(F)F)cc2)cc1" ) has IC50 equal to < 100 nM

Per the records, this compound ( O=C(O)CN(c1ccc(-c2ccc(Cl)cc2)cc1)c1nn[nH]c1C(=O)O [Compound 66, 2,2,2-trifluoroacetate] ) has IC50 equal to 1000 to 10000 nM

Per the records, this compound ( "COc1ccc(Cn2nnc(C(=O)O)c2Sc2csc(-c3ccc(OC)c(Cl)c3)n2)cc1" ) has IC50 equal to > 10000 nM

Per the records, this compound ( "O=C(O)c1[nH]nnc1Sc1ccc2cc(Cl)ccc2n1" ) has IC50 equal to 100 to 1000 nM

Per the records, this compound ( "O=C(O)c1[nH]nnc1Oc1ccc2c(c1)CCCC2" ) has IC50 equal to < 100 nM
